Measurement Description: qHTS for Inhibitors of the Functional Ribonucleoprotein Complex (vRNP) of Lassa (LASV) Arenavirus: Viability assay - alamar blue signal for LASV Primary Screen (AID 1347083); also: nearly all actives have a fitted effect of over 80% in size
Cond: cell viability, alamar blue fluorescence (LASV minigenome counter-screen); series mostly up to 57.5 µM
Records with an inconclusive call do not appear. Calls of active or inactive are those of the source. Calls follow the shape of the full dose curve; tested in HEK293 reporter line.
Pick from 1.0 = active, 0.0 = inactive when you respond.

So what was the verdict on Cc1c(O)c(C)c2c(c1O)C(=O)C[C@@H](c1ccccc1)O2 in this test?
0.0

So what was the verdict on CSCC[C@@H](N)C(=O)O in this test?
0.0

So what was the verdict on CCCCCCCC(=O)O in this test?
0.0

So what was the verdict on CCCCCCCCCC=O in this test?
0.0

So what was the verdict on COc1ccc([C@@H]2CNC(=O)C2)cc1OC1CCCC1 in this test?
1.0

So what was the verdict on COc1ccc([C@@H]2CC(=O)c3c(O)cc(O[C@@H]4OC(CO[C@@H]5OC(C)[C@H](O)[C@@H](O)[C@H]5O)[C@@H](O)[C@H](O)[C@H]4O)cc3O2)cc1O (some centres undefined) in this test?
0.0

So what was the verdict on N.N.O=C(O)C1(C(=O)O)CCC1.[Pt] in this test?
0.0

So what was the verdict on COc1c2c(cc(O)c1C(C)=O)OC(C)(C)C=C2 in this test?
0.0

So what was the verdict on CC(=O)O[C@@H]1[C@H](OC(=O)CC(C)C)c2c(ccc3ccc(=O)oc23)OC1(C)C in this test?
0.0

====

Measurement Description: qHTS for Inhibitors of the Functional Ribonucleoprotein Complex (vRNP) of Lassa (LASV) Arenavirus: LASV Primary Screen - GLuc reporter signal (AID 1347082); also: nearly all actives have a fitted effect of over 60% in size
Cond: LASV minigenome vRNP, Gaussia luciferase reporter; series mostly up to 57.5 µM
Records with an inconclusive call do not appear. Calls of active or inactive are those of the source. Calls follow the shape of the full dose curve; tested in HEK293 reporter line.
Pick from TRUE (active), FALSE (inactive) when you respond.

So what was the verdict on CC[C@H]1O[C@]2(CC[C@@H]1C)C[C@@H]1C[C@@H](C/C=C(\C)C[C@@H](C)/C=C/C=C3\CO[C@@H]4[C@H](O)C(C)=C[C@@H](C(=O)O1)[C@]34O)O2 in this test?
FALSE

So what was the verdict on CCc1ccc(/C=C2/SC(=S)NC2=O)cc1 in this test?
FALSE

So what was the verdict on CC(=O)c1c(O)cc(O)cc1O in this test?
FALSE

So what was the verdict on CN1C(=O)[C@@H]2C[C@@]3([C@@]45C[C@H]6C(=O)N(C)[C@@H](Cc7ccccc7)C(=O)N6[C@@H]4Nc4ccccc45)c4ccccc4N[C@H]3N2C(=O)[C@@H]1Cc1ccccc1 in this test?
FALSE

So what was the verdict on O=c1cc(-c2ccccc2)oc2cc(O)cc(O)c12 in this test?
FALSE

So what was the verdict on c1nc2nc(Nc3ccc(N4CCOCC4)cc3)nc(NC3CCCCC3)c2[nH]1 in this test?
FALSE

So what was the verdict on CC(=O)O[C@@H]1/C=C/[C@](C)(O)C[C@@H](C)C/C=C/[C@H]2[C@H](O)C(C)=C(C)[C@H]3[C@H](Cc4ccccc4)NC(=O)[C@@]123 in this test?
FALSE

So what was the verdict on N#CC(c1ccnc(NCCc2cccnc2)n1)c1nc2ccccc2s1 (configuration not stated) in this test?
FALSE

So what was the verdict on COc1cc(OC)c(NC(=O)Nc2cc(C)on2)cc1Cl in this test?
FALSE

So what was the verdict on CC1=C(C=O)C(C)(C)CCC1 in this test?
FALSE

So what was the verdict on CCC(=O)OCC(=O)[C@@]1(OC(=O)CC)[C@@H](C)C[C@@H]2[C@H]3CCC4=CC(=O)C=C[C@]4(C)[C@@]3(F)[C@@H](O)C[C@@]21C in this test?
FALSE

So what was the verdict on CN(C[C@@H]1COCCO1)S(=O)(=O)Nc1ccc2ccc3ncc(-c4cnn(C)c4)cc3c(=O)c2c1 in this test?
FALSE

So what was the verdict on OC[C@H]1O[C@@H](n2cnc3cncnc32)[C@H](O)[C@@H]1O in this test?
FALSE

So what was the verdict on Oc1ccc(-c2ccc(-c3cc(Nc4cccc(CNC5CC5)c4)n[nH]3)cc2)c(O)c1 in this test?
TRUE

So what was the verdict on COC(=O)c1c(C)cc(O)c(C)c1O in this test?
FALSE

So what was the verdict on CCCCCCCCCCCCCCCCCCCCCCO in this test?
FALSE

So what was the verdict on C[C@@H]1CC[C@]2(C(=O)O[C@@H]3O[C@H](CO)[C@@H](O)[C@H](O)[C@H]3O)CC[C@]3(C)C(=CCC4[C@@]5(C)C[C@@H](O)[C@H](O)[C@@](C)(C(=O)O[C@@H]6[C@H](O)C[C@@]7(C)C(CC[C@]8(C)C7CC=C7[C@H]9[C@](C(=O)O[C@@H]%10O[C@H](CO)[C@@H](O)[C@H](O)[C@H]%10O)(CC[C@@H](C)[C@@]9(C)O)CC[C@]78C)[C@@]6(CO)C(=O)O)C5CC[C@]43C)[C@@H]2[C@]1(C)O (some centres not stated) in this test?
FALSE

====

Tested on: HeLa
Measurement Description: Primary qHTS to identify gynecologic anti-cancer compounds using libraries of approved drugs and bioactive compounds (AID 1345084); also: nearly all actives have a fitted effect of over 55% in size; also: potency is read from the fitted curve at half-maximal effect
Cond: Gynecologic cancer cell panel viability, ATPlite luminescence, 48 h; series mostly up to 57.5 µM
Records with an inconclusive call do not appear. Calls of active or inactive are those of the source. The call rests on the fitted dose curve; in most records, active means well fitted cell-killing curve with a large enough effect; inconclusive means small, poorly fitted or top-dose-only effect, or effect the other way; inactive means flat fitted curve, though single readings scatter.
Assay Readout: Potency

Worked examples follow.
1. COC1CC(O[C@H]2CC[C@@]3(C)C(CCC4C3CC[C@]3(C)C(C5=CC(=O)OC5)CCC43O)C2)OC(C)C1OC1OC(COC2OC(CO)C(O)C(O)C2O)C(O)C(O)C1O (stereo not given in full)	2820 nM (active)
2. CCCCCn1cc(C(=O)c2cccc3ccccc23)c2ccccc21	inactive
3. CC1CCCCCC(=O)c2c(O)cc(O)cc2CC(=O)O1 (stereo not given)	inactive
4. CC(=O)O[C@H]1C(=O)[C@]2(C)C(O)C[C@H]3OC[C@@]3(OC(C)=O)[C@H]2[C@H](OC(=O)c2ccccc2)[C@]2(O)C[C@H](O)C(C)=C1C2(C)C (stereo not given in full)	inactive

# get_value(readout='Potency', item= O=C(NCCN1CCC2(CC1)C(=O)NCN2c1cccc(F)c1)c1ccc(F)c(F)c1 )
inactive

====

Measurement Description: qHTS for Inhibitors of the Functional Ribonucleoprotein Complex (vRNP) of Lymphocytic Choriomeningitis Arenaviruses (LCMV): Viability assay - alamar blue signal for LCMV Primary Screen (AID 1347085); also: nearly all actives have a fitted effect of over 80% in size
Cond: alamar blue viability counter-screen, LCMV vRNP screen cells; series mostly up to 57.5 µM
Records with an inconclusive call do not appear. Activity calls are given as the source filed them. Calls come from the whole dose curve; tested in HEK293 reporter line.
Pick from true (active), false (inactive) when you respond.

So what was the verdict on CCCCCCCCCCCCCCCC(=O)NCC(COP(=O)([O-])OCC[N+](C)(C)C)OCC (stereo unspecified) in this test?
false

So what was the verdict on C=CCCCCCCCCC=O in this test?
false

So what was the verdict on COc1cccc(Nc2c(C(N)=O)cnc3c(C)cc(S(=O)(=O)c4cccc(C(=O)N(C)C)c4)cc23)c1 in this test?
true

So what was the verdict on N#Cc1cc([N+](=O)[O-])c2sc(C(N)=O)[n+]([O-])c2c1 in this test?
false

So what was the verdict on CCCCCC(O)c1cccc(OCc2ccc3ccccc3n2)c1 (stereo unspecified) in this test?
false

So what was the verdict on CC=CC[C@@H](C)C(=O)[C@H]1C(=O)N[C@@H](C(C)C)C(=O)N(C)CC(=O)N(C)[C@@H](CC(C)C)C(=O)N[C@@H](C(C)C)C(=O)N(C)[C@@H](CC(C)C)C(=O)N[C@@H](C)C(=O)N[C@H](C)C(=O)N(C)[C@@H](CC(C)C)C(=O)N(C)[C@@H](CC(C)C)C(=O)N(C)[C@@H](C(C)C)C(=O)N1C in this test?
false

So what was the verdict on CC(=O)c1c(O)cc(O)cc1O in this test?
false

So what was the verdict on CC(=O)N[C@@H]1[C@H](O[C@@H]2c3ccc(c(Cl)c3)Oc3cc4cc(c3O[C@H]3O[C@H](CO)[C@@H](O)[C@H](O)[C@H]3NC(=O)CCCCCCCC(C)C)Oc3ccc(cc3Cl)C[C@H]3NC(=O)[C@H](N)c5ccc(O)c(c5)Oc5cc(O)cc(c5)[C@H](NC3=O)C(=O)N[C@H]4C(=O)N[C@H]3C(=O)N[C@@H]2C(=O)N[C@@H](C(=O)O)c2cc(O)cc(O[C@H]4O[C@H](CO)[C@@H](O)[C@H](O)[C@H]4O)c2-c2cc3ccc2O)O[C@H](CO)[C@@H](O)[C@@H]1O in this test?
false

So what was the verdict on O=C(O)c1cc(O)c2c(c1)C(=O)c1cccc(O)c1C2=O in this test?
false

So what was the verdict on Nc1cccc2c1C(=O)N(C1CCC(=O)NC1=O)C2=O (stereo unspecified) in this test?
false

So what was the verdict on COC1=CC(=O)OC(CCc2ccc3c(c2)OCO3)C1 (stereo unspecified) in this test?
false

So what was the verdict on O=C(C[C@@H]1NCCC[C@@H]1O)Cn1cnc2ccccc2c1=O in this test?
false

So what was the verdict on CCOC1OC(=O)C[C@H]1NC(=O)[C@@H]1CCCN1C(=O)[C@@H](NC(=O)c1ccc(N)c(Cl)c1)C(C)(C)C (stereo partly specified) in this test?
false

So what was the verdict on C=CC(O)CCCCC (stereo unspecified) in this test?
false

So what was the verdict on COC(=O)C1=CO[C@@H](C)[C@@H]2CN3CCc4c([nH]c5ccccc45)[C@@H]3C[C@H]12 in this test?
false

So what was the verdict on NC(C(=O)O)C1ON=C(Cl)C1O (stereo unspecified) in this test?
false

So what was the verdict on COc1ccc(-c2coc3cc(OC)ccc3c2=O)cc1 in this test?
false

So what was the verdict on N[C@H](C(=O)O)[C@H](Cc1ccccc1)C(=O)O in this test?
false

So what was the verdict on NC1(C(=O)N[C@@H](CCO)c2ccc(Cl)cc2)CCN(c2ncnc3[nH]ccc23)CC1 in this test?
true

So what was the verdict on CC(=O)OC(C)c1ccccc1 (stereo unspecified) in this test?
false

So what was the verdict on COC(=O)c1cc2c([nH]c3ccccc32)c(C)n1 in this test?
false

So what was the verdict on CC[C@@]1([C@@H]2O[C@@H]([C@H]3O[C@@](O)(CO)[C@H](C)C[C@H]3C)C[C@H]2C)CC[C@H]([C@]2(C)CC[C@]3(C[C@H](O)[C@@H](C)[C@@H]([C@@H](C)[C@@H](OC)[C@H](C)C(=O)O)O3)O2)O1 in this test?
true

So what was the verdict on CCCCCC(C)O (stereo unspecified) in this test?
false

So what was the verdict on C=CCc1c(OC)ccc2ccc(=O)oc12 in this test?
false

So what was the verdict on CNC(=O)c1ccc(-c2cnc3ncc(Cc4ccc5ncccc5c4)n3n2)cc1F in this test?
false

So what was the verdict on O=C1C=C(C2OC(CO)C(O)C2O)C(=O)N1 (stereo unspecified) in this test?
false
